Tested on: Human immunodeficiency virus 1
Experiment: Binding affinity to HLT-tagged HIV-1 Rev measured after overnight incubation by chemiluminescence analysis relative to IN 118-128
Parameters: concentration or dose not given beside the values
Square brackets hold non-standard residues; d marks the D form. Peptide text beside a SMILES is read from it. NMeF = CN[C@@H](Cc1ccccc1)C(=O)O; NMeA = CN[C@@H](C)C(=O)O
Known Activity of a selection of compounds
All answers are understood in %, so give the number only.

{"compound": "CC(C)[C@H](NC(=O)[C@@H](NC(=O)[C@@H](NC(=O)[C@H](CO)NC(=O)[C@@H](NC(=O)[C@H](Cc1ccccc1)N(C)C(=O)[C@H](CC(N)=O)NC(=O)[C@H](CO)NC(=O)CN)[C@@H](C)O)[C@@H](C)O)[C@@H](C)O)C(=O)N[C@@H](CCCCN)C(=O)N[C@@H](C)C(=O)O (H-GSN[NMeF]TSTTVKA-OH)", "readoutName": "Activity", "number": 177}

Ask: Recorded Activity of CC(C)[C@H](NC(=O)[C@@H](NC(=O)[C@@H](NC(=O)[C@H](CO)NC(=O)[C@@H](NC(=O)[C@H](Cc1ccccc1)NC(=O)[C@H](CC(N)=O)NC(=O)[C@H](CO)NC(=O)CN)[C@@H](C)O)[C@@H](C)O)[C@@H](C)O)C(=O)N[C@@H](CCCCN)C(=O)N(C)[C@@H](C)C(=O)O (H-GSNFTSTTVK[NMeA]-OH) , please.
Reply: 141

---

Target: UniProt:Q7ZJM1
Assay: Binding affinity to HIV-1 integrase measured after overnight incubation by chemiluminescence analysis relative to IN 174-188
Design: concentration or dose not given beside the values
Square brackets hold non-standard residues; d marks the D form. Peptide text beside a SMILES is read from it. NMeF = CN[C@@H](Cc1ccccc1)C(=O)O
Known Activity of a selection of compounds
All answers are understood in %, so give the number only.

Below are worked cases with known answers.
{"compound": "CC[C@H](C)[C@H](NC(=O)[C@H](Cc1ccccc1)NC(=O)[C@@H](NC(=O)[C@H](C)NC(=O)[C@H](CCSC)NC(=O)[C@H](CCC(N)=O)NC(=O)[C@@H](NC(=O)[C@H](C)NC(=O)[C@@H](N)[C@@H](C)O)C(C)C)C(C)C)C(=O)N[C@@H](Cc1cnc[nH]1)C(=O)N[C@@H](CC(N)=O)C(=O)N(C)[C@@H](Cc1ccccc1)C(=O)N[C@@H](CCCCN)C(=O)N[C@@H](CCCNC(=N)N)C(=O)N[C@@H](CCCCN)C(=O)O (H-TAVQMAVFIHN[NMeF]KRK-OH)", "measurementUnit": "%", "Activity": 122}
{"compound": "CC[C@H](C)[C@H](NC(=O)[C@H](Cc1ccccc1)NC(=O)[C@@H](NC(=O)[C@H](C)NC(=O)[C@H](C)NC(=O)[C@H](CCC(N)=O)NC(=O)[C@@H](NC(=O)[C@H](C)NC(=O)[C@@H](N)[C@@H](C)O)C(C)C)C(C)C)C(=O)N[C@@H](Cc1cnc[nH]1)C(=O)N[C@@H](CC(N)=O)C(=O)N[C@@H](Cc1ccccc1)C(=O)N[C@@H](CCCCN)C(=O)N[C@@H](CCCNC(=N)N)C(=O)N[C@@H](CCCCN)C(=O)O (H-TAVQAAVFIHNFKRK-OH)", "measurementUnit": "%", "Activity": 113}

Ask: Recorded Activity of CC[C@H](C)[C@H](NC(=O)[C@H](Cc1ccccc1)NC(=O)[C@@H](NC(=O)[C@H](C)NC(=O)[C@H](CCSC)NC(=O)[C@H](CCC(N)=O)NC(=O)[C@@H](NC(=O)[C@H](C)NC(=O)[C@@H](N)[C@@H](C)O)C(C)C)C(C)C)C(=O)N[C@H](Cc1cnc[nH]1)C(=O)N[C@@H](CC(N)=O)C(=O)N[C@@H](Cc1ccccc1)C(=O)N[C@@H](CCCCN)C(=O)N[C@@H](CCCNC(=N)N)C(=O)N[C@@H](CCCCN)C(=O)O , please.
Reply: 105

---

Biological target: Human immunodeficiency virus type 1 integrase (Human immunodeficiency virus 1) (UniProt Q7ZJM1)
Sequence (Q7ZJM1 as listed by the source): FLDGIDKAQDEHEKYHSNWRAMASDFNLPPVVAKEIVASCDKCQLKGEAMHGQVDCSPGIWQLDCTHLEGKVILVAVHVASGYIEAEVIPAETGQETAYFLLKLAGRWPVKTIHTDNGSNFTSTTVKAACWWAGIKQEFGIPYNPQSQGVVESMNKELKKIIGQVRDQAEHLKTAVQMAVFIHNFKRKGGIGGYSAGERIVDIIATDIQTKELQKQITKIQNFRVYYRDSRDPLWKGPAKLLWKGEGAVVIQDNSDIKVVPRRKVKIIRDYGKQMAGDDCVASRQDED
Assay: Binding affinity to HIV-1 integrase measured after overnight incubation by chemiluminescence analysis relative to IN 118-128
Design: concentration or dose not given beside the values
Square brackets hold non-standard residues; d marks the D form. Peptide text beside a SMILES is read from it. NMeS = CN[C@@H](CO)C(=O)O
In plain terms, low Activity, meaning strictly below 200%, gives Satisfied, and everything else gives Not satisfied.

Example entries begin here.
{"compound": "CC(C)[C@H](NC(=O)[C@@H](NC(=O)[C@@H](NC(=O)[C@H](CO)NC(=O)[C@@H](NC(=O)[C@H](Cc1ccccc1)NC(=O)[C@H](CC(N)=O)NC(=O)[C@H](CO)NC(=O)CN)[C@@H](C)O)[C@@H](C)O)[C@@H](C)O)C(=O)N[C@H](CCCCN)C(=O)N[C@@H](C)C(=O)O", "answerLabel": "Satisfied"}
{"compound": "C[C@@H](O)[C@H](NC(=O)[C@H](CO)NC(=O)[C@@H](NC(=O)[C@H](Cc1ccccc1)NC(=O)[C@H](CC(N)=O)NC(=O)[C@H](CO)NC(=O)CN)[C@@H](C)O)C(=O)O (H-GSNFTST-OH)", "answerLabel": "Satisfied"}
{"compound": "CC(C)[C@H](NC(=O)[C@@H](NC(=O)[C@@H](NC(=O)[C@H](CO)NC(=O)[C@@H](NC(=O)[C@H](Cc1ccccc1)NC(=O)[C@H](CC(N)=O)NC(=O)[C@H](CO)N(C)C(=O)CN)[C@@H](C)O)[C@@H](C)O)[C@@H](C)O)C(=O)N[C@@H](CCCCN)C(=O)N[C@@H](C)C(=O)O (H-G[NMeS]NFTSTTVKA-OH)", "answerLabel": "Satisfied"}
{"compound": "CC(C)[C@@H](NC(=O)[C@@H](NC(=O)[C@@H](NC(=O)[C@H](CO)NC(=O)[C@@H](NC(=O)[C@H](Cc1ccccc1)NC(=O)[C@H](CC(N)=O)NC(=O)[C@H](CO)NC(=O)CN)[C@@H](C)O)[C@@H](C)O)[C@@H](C)O)C(=O)N[C@@H](CCCCN)C(=O)N[C@@H](C)C(=O)O", "answerLabel": "Satisfied"}
{"compound": "CC(C)[C@H](NC(=O)[C@@H](NC(=O)[C@@H](NC(=O)[C@H](CO)NC(=O)[C@@H](NC(=O)[C@@H](Cc1ccccc1)NC(=O)[C@H](CC(N)=O)NC(=O)[C@H](CO)NC(=O)CN)[C@@H](C)O)[C@@H](C)O)[C@@H](C)O)C(=O)N[C@@H](CCCCN)C(=O)N[C@@H](C)C(=O)O", "answerLabel": "Not satisfied"}

Ask: Does the reported Activity of CC(C)[C@H](NC(=O)[C@@H](NC(=O)[C@@H](NC(=O)[C@H](CO)NC(=O)[C@@H](N)[C@@H](C)O)[C@@H](C)O)[C@@H](C)O)C(=O)N[C@@H](CCCCN)C(=O)N[C@@H](C)C(=O)O (H-TSTTVKA-OH) stay below 200%?
Reply: Satisfied

---

Target: Human immunodeficiency virus type 1 integrase (Human immunodeficiency virus 1) (UniProt Q7ZJM1)
Assay: Binding affinity to HIV-1 integrase measured after overnight incubation by chemiluminescence analysis relative to IN 174-188
Parameters: concentration or dose not given beside the values
Peptide text beside a SMILES is read from it.
readoutName: Activity (%)
All answers are understood in %, so give the number only.

Below are worked cases with known answers.
{"compound": "CC[C@H](C)[C@H](NC(=O)[C@H](Cc1ccccc1)NC(=O)[C@@H](NC(=O)[C@H](C)NC(=O)[C@H](CCSC)NC(=O)[C@H](CCC(N)=O)NC(=O)[C@@H](NC(=O)[C@H](C)NC(=O)[C@@H](N)[C@@H](C)O)C(C)C)C(C)C)C(=O)N[C@@H](Cc1cnc[nH]1)C(=O)N[C@@H](CC(N)=O)C(=O)N[C@@H](Cc1ccccc1)C(=O)N[C@@H](CCCCN)C(=O)N[C@@H](CCCNC(=N)N)C(=O)N[C@H](CCCCN)C(=O)O", "Activity / %": 86}
{"compound": "CC[C@H](C)[C@H](NC(=O)[C@H](Cc1ccccc1)NC(=O)[C@@H](NC(=O)[C@H](C)NC(=O)[C@H](CCSC)NC(=O)[C@H](CCC(N)=O)NC(=O)[C@@H](NC(=O)[C@H](C)NC(=O)[C@@H](N)[C@@H](C)O)C(C)C)C(C)C)C(=O)N[C@@H](Cc1cnc[nH]1)C(=O)O (H-TAVQMAVFIH-OH)", "Activity / %": 0}
{"compound": "CC[C@H](C)[C@H](NC(=O)[C@H](Cc1ccccc1)NC(=O)[C@@H](NC(=O)[C@H](C)NC(=O)[C@H](CCSC)NC(=O)[C@H](CCC(N)=O)NC(=O)[C@@H](NC(=O)[C@H](C)NC(=O)[C@@H](N)[C@@H](C)O)C(C)C)C(C)C)C(=O)N[C@@H](Cc1cnc[nH]1)C(=O)N[C@@H](CC(N)=O)C(=O)N[C@@H](C)C(=O)N[C@@H](CCCCN)C(=O)N[C@@H](CCCNC(=N)N)C(=O)N[C@@H](CCCCN)C(=O)O (H-TAVQMAVFIHNAKRK-OH)", "Activity / %": 134}
{"compound": "CC[C@H](C)[C@H](NC(=O)[C@H](Cc1ccccc1)NC(=O)[C@@H](NC(=O)[C@H](C)NC(=O)[C@H](CCSC)NC(=O)[C@H](CCC(N)=O)NC(=O)[C@@H](NC(=O)[C@H](C)NC(=O)[C@@H](N)[C@@H](C)O)C(C)C)C(C)C)C(=O)N[C@@H](Cc1cnc[nH]1)C(=O)N[C@@H](CC(N)=O)C(=O)O (H-TAVQMAVFIHN-OH)", "Activity / %": 0}

Ask: Recorded Activity of CC[C@H](C)[C@H](NC(=O)[C@H](Cc1ccccc1)NC(=O)[C@@H](NC(=O)[C@H](C)NC(=O)[C@H](CCSC)NC(=O)[C@H](CCC(N)=O)NC(=O)[C@@H](NC(=O)[C@H](C)NC(=O)[C@@H](N)[C@@H](C)O)C(C)C)C(C)C)C(=O)N[C@@H](Cc1cnc[nH]1)C(=O)N[C@H](CC(N)=O)C(=O)N[C@@H](Cc1ccccc1)C(=O)N[C@@H](CCCCN)C(=O)N[C@@H](CCCNC(=N)N)C(=O)N[C@@H](CCCCN)C(=O)O , please.
Reply: 116
